Test system: MDA-MB-468 breast
Assay: NCI tumour cell line growth inhibition, 48 h
measurementLabel: log10(TGI) (log10 of the value in µM)
A value of 2 here means TGI of 100 in µM, since values are log10.

// worked examples, log10(TGI) included
CC(C)CCC[C@@H](C)[C@H]1CCC2C3=CCn4c(=O)ccc(=O)n4C3CC[C@@]21C (stereo partly drawn): 0.47
Cc1nc(Nc2nc(C)c3ccc(OCCN4CCOCC4)cc3n2)[nH]c(=O)c1C: 0.58
CN1CCN(c2ccc(N3Cc4ccccc4OC4=C3C(=O)c3c(O)ccc(O)c3C4=O)cn2)CC1: -0.24
C=C1CC[C@@H]2[C@]3(C)COC(c4cn[nH]c4-c4ccc(C)cc4)O[C@@H]3CC[C@@]2(C)[C@@H]1C/C=C1/C(=O)OCC1O (stereo partly drawn): 1.34

Record `CCN(CC)CCOc1nc2c3ccc(Cl)cc3nn2c2ccccc12` : what is its log10(TGI) with MDA-MB-468 breast?
0.55

# query: log10(TGI) | item `O=C1c2ccccc2C(=O)c2c1ccc(C(Br)Br)c2Cl` | system: MDA-MB-468 breast
0.66

For the record `CCN(CC)CCNC(=O)c1cn2ncnc(Oc3ccc(NC(=O)Nc4ccc(Cl)c(C(F)(F)F)c4)cc3)c2c1C` , what value of log10(TGI) is listed for MDA-MB-468 breast?
0.52
